Sourced from patent US9980943B2

Tested on: β-galactosidase in CMV-LacZ C2C12 myoblasts
test: CMV-LacZ secondary screen in C2C12 myoblasts (β-Gal stabilizing assay)
Type: cell-based, mouse
experimental_context: 10 uM; CMV-LacZ C2C12 myoblasts
Returns: string. Value is true (1) if measured CMV-LACZ in Myoblasts (β-galactosidase activity relative to DMSO) is below 1, and false (0) if it is greater than or equal to it.

# molecule, category_label
data = [
    ("N#Cc1ccc(Sc2nc3ccccc3[nH]2)cc1C#N", "true (1)"),
    ("O=C(NCc1ccccc1)C(c1c(F)cccc1Cl)N(C(=O)c1csnn1)C1CC1 (centres unmarked)", "true (1)"),
    ("CC1(C)Cc2c(c(N3CCOCC3)nc3sc(C(=O)Nc4ccccc4)c(N)c23)CO1", "false (0)"),
    ("Cc1[nH]c(=O)[nH]c(=O)c1S(=O)(=O)Nc1ccc(F)cc1Cl", "false (0)"),
    ("c1ccc(-c2cc(-c3nc4ccccc4[nH]3)c3ccccc3n2)cc1", "false (0)"),
    ("CCOC(=O)C1(Cc2cccc(Cl)c2)CCCN(C(=O)CCSC)C1 (centres unmarked)", "true (1)"),
    ("COc1ccc(C(=O)Cn2nnc(-c3ccccc3NC(=O)c3ccco3)n2)cc1", "false (0)"),
]

###

Parameter: CMV-LACZ in Myotubes, signal relative to DMSO. Scope: all listed entries.
System: β-galactosidase in CMV-LacZ C2C12 myotubes
test: CMV-LacZ secondary screen in C2C12 myotubes (β-Gal stabilizing assay)
Format: cell-based, mouse
experimental_context: 5 uM; C2C12 CMV-LacZ myotubes; fold relative to DMSO
readout: CMV-LACZ in Myotubes, signal relative to DMSO

# compound, endpoint_result
data = [
    ("c1ccc(-c2cn3c4c(sc3n2)CCCC4)cc1", 1.0269),
    ("CCOc1ccc2ccccc2c1C1NC(=O)N(C)C(C)=C1C(=O)OCCOC (stereo not drawn)", 0.7491),
    ("NS(=O)(=O)c1ccc(NC(=O)c2ccc(CNS(=O)(=O)c3cc(C(F)(F)F)ccc3Cl)cc2)cc1", 1.103),
    ("COc1ccccc1C(=O)NCCOc1ccc(C(C)(C)C)cc1", 0.8604),
    ("N#Cc1ccc(Sc2nc3ccccc3[nH]2)cc1C#N", 0.9617),
    ("CN(CCC1CCCCO1)C(=O)CCc1nnc(CCCCc2ccccc2)o1 (stereo not drawn)", 0.9548),
    ("COc1ccc(C)cc1NC(=O)c1ccc2c(O)c(S(=O)(=O)c3ccccc3)c(=O)[nH]c2c1", 0.8862),
    ("CC(C)(C)NC(=O)NC(=O)CN1CCN(Cc2ccccc2)CC1", 0.9398),
    ("COc1ccc(CNC(=O)COC(=O)CCc2c[nH]c3ccccc23)cc1", 0.9658),
]

###

Test system: β-galactosidase in CMV-LacZ C2C12 myotubes
test: CMV-LacZ secondary screen in C2C12 myotubes (β-Gal stabilizing assay)
Type: cell-based, mouse
experimental_context: 40 uM; CMV-LacZ C2C12 myotubes; 96-well format
Reported CMV-LACZ in Myotubes (β-galactosidase activity relative to DMSO) is given for each of the following compounds.
readout: CMV-LACZ in Myotubes (β-galactosidase activity relative to DMSO)

# compound, endpoint_result
data = [
    ("COc1ccc(C(=O)O/N=C(\\N)c2cccc(C)c2)cc1OC", 1.488),
    ("CCS(=O)(=O)N1CCN(c2ccc([N+](=O)[O-])c(NCC3CCCO3)c2)CC1 (centres unmarked)", 1.1136),
    ("Cc1ccc(-c2csc(Nc3ccc(C(=O)O)cc3)[n+]2Cc2ccccc2)cc1", 0.5036),
    ("CCCCNC(=O)CN(C(=O)c1snc(C(=O)NC2CCCCC2)c1N)c1ccc(OC)cc1OC", 0.7395),
    ("Cc1cc(NC(=O)CCC(=O)N(Cc2cccnc2)C(C(=O)NC(C)(C)C)c2ccccc2Cl)no1 (centres unmarked)", 1.05),
    ("O=S(=O)(NCC(c1ccco1)N1CCOCC1)c1ccc(Cl)cc1 (centres unmarked)", 1.125),
    ("COc1cc(/C=C/c2nc(-c3ccccc3O)n[nH]2)cc(OC)c1OC", 0.332),
    ("Cc1ccc(NC(=O)CC2COc3ccccc3O2)cc1 (centres unmarked)", 0.844),
]

###

# key: entry, value: CMV-LACZ in Myoblasts (β-galactosidase activity relative to DMSO)
System: β-galactosidase in CMV-LacZ C2C12 myoblasts
test: CMV-LacZ secondary screen in C2C12 myoblasts (β-Gal stabilizing assay)
Assay type: cell-based, mouse
experimental_context: 0.5 uM; CMV-LacZ C2C12 myoblasts
readout: CMV-LACZ in Myoblasts (β-galactosidase activity relative to DMSO)

# molecule, study_system, endpoint_result
records = [
    ("CN(/C(=N/S(=O)(=O)c1cccs1)c1ccccc1)c1ccccc1", "β-galactosidase in CMV-LacZ C2C12 myoblasts", 0.9691),
    ("O=C(O)c1csc(-c2cccs2)n1", "β-galactosidase in CMV-LacZ C2C12 myoblasts", 0.9069),
    ("Cn1c(-c2ccccc2)cc2ccccc21", "β-galactosidase in CMV-LacZ C2C12 myoblasts", 0.7877),
    ("CCOn1c(=O)c(-c2ccccc2)[n+]([O-])c2ccccc21", "β-galactosidase in CMV-LacZ C2C12 myoblasts", 1.2028),
    ("O=C(NCCc1ccccc1)C1CCC(=O)N1C1CCCC1 (stereo not drawn)", "β-galactosidase in CMV-LacZ C2C12 myoblasts", 1.1043),
    ("CCOc1ccccc1Nc1cc2n(c(=O)n1)CCc1cc(OC)c(OC)cc1-2", "β-galactosidase in CMV-LacZ C2C12 myoblasts", 1.2983),
    ("O=CN1CCN(C(=O)CC(c2ccccc2)c2cc(Br)ccc2O)CC1 (stereo not drawn)", "β-galactosidase in CMV-LacZ C2C12 myoblasts", 1.1029),
    ("CCCS(=O)(=O)c1nc(S(=O)(=O)c2ccc(C)cc2)c(N2CCCC2)s1", "β-galactosidase in CMV-LacZ C2C12 myoblasts", 0.9809),
    ("C/C(=N\\NC(=O)c1cc(C)oc1C)c1ccc2ccccc2c1", "β-galactosidase in CMV-LacZ C2C12 myoblasts", 1.1073),
]

###

Test system: α7 integrin (LacZ reporter in α7+/LacZ myotubes)
test: Myotube α7 integrin FDG assay (Burkin assay in myotubes, 96-well)
Assay type: cell-based, mouse
experimental_context: 10 uM; SU9516 analogs, 96-well, N=3-6
Form field: Burkin Assay in Myotubes, value relative to DMSO (one value per entry).
readout: Burkin Assay in Myotubes, value relative to DMSO

# molecule, endpoint_result
records = [
    ("O=Nc1c(-c2c(O)[nH]c3ccccc23)[nH]c2ccccc12 [NCGC00015545-07]", 0.7457),
    ("O=C1Nc2ccccc2/C1=C/c1ccc([N+](=O)[O-])cc1 [MLS001194544-01]", 1.07),
    ("Cc1[nH]c(C=C2C(=O)Nc3ccccc32)c(C)c1CCC(=O)O [NCGC00241113-01]", 0.7678),
    ("Cc1ccc(/C=C2\\C(=O)Nc3ccccc32)o1 [MLS000391588-01]", 0.9356),
    ("CC(C)Oc1ccc(C(=O)/C=C2/C(=O)Nc3ccccc32)cc1 [MLS001214276-01]", 0.6945),
    ("CN1CCN(c2ccccc2/C=C2/C(=O)Nc3ccccc32)CC1 [MLS001182377-01]", 0.9389),
    ("COc1ccc(C(=O)/C=C2/C(=O)Nc3ccccc32)cc1OC [MLS001163860-01]", 1.138),
    ("COc1ccc(C(=O)/C=C2/C(=O)Nc3ccccc32)cc1 [MLS001163848-01]", 0.7469),
    ("CCn1c(O)c(C(C#N)=C2N=c3ccccc3=N2)c2ccccc21 [MLS000564846-01]", 1.071),
    ("COc1ccc2c(c1)/C(=C\\c1cccc(/C=C3/C(=O)Nc4ccc(OC)cc43)n1)C(=O)N2 [MLS002702497-01]", 0.7814),
    ("O=C1Nc2ccccc2/C1=C/c1ccccc1Cl [MLS001202425-01]", 0.8033),
    ("COc1cc(OC)c(/C=C2/C(=O)Nc3ccccc32)c(OC)c1 [NCGC00015546-04]", 0.8253),
    ("CCc1nc(/C=C2\\C(=O)Nc3ccccc32)c[nH]1 [MLS000834755-01]", 0.9868),
]

###

System: α7 integrin (LacZ reporter in α7+/LacZ myotubes)
test: Myotube α7 integrin FDG assay (Burkin assay in myotubes, 96-well)
Assay type: cell-based, mouse
experimental_context: myotubes, 40 uM
Binary call on Burkin Assay in Myotubes, α7 integrin LacZ reporter signal relative to DMSO with cut-off 0.9: strictly below means t, and equality or higher means f.

# compound, category_label
data = [
    ("CCC(=O)c1ccc(OCC(O)CN2CC(C)OC(C)C2)cc1.O=C(O)C(=O)O (centres unmarked)", "f"),
    ("CCC(C)n1[nH]c(=O)cc1N (centres unmarked)", "t"),
    ("CCCc1nnc(SCC(=O)NC2CCCC2)n1CCOC", "t"),
    ("CCCN(C(=O)c1ccc(S(=O)(=O)N2CCCC2)cc1)C1CCS(=O)(=O)C1 (centres unmarked)", "f"),
    ("CC(C)c1ccc(OC(=O)c2cccc(S(=O)(=O)N3CCN(C)CC3)c2)cc1", "t"),
    ("COc1ccccc1CC(=O)Nc1cc(S(=O)(=O)N2CCOCC2)ccc1N1CCOCC1", "f"),
    ("O=C(c1cccs1)N(Cc1ccco1)c1nc(-c2ccc(F)cc2)cs1", "f"),
]
